Cited source: patent US7501418B2

- target of assay: hα2C receptor (Homo sapiens, UniProt P18825)
- Construct: expressed in transfected cells
- Sequence (P18825 whole entry): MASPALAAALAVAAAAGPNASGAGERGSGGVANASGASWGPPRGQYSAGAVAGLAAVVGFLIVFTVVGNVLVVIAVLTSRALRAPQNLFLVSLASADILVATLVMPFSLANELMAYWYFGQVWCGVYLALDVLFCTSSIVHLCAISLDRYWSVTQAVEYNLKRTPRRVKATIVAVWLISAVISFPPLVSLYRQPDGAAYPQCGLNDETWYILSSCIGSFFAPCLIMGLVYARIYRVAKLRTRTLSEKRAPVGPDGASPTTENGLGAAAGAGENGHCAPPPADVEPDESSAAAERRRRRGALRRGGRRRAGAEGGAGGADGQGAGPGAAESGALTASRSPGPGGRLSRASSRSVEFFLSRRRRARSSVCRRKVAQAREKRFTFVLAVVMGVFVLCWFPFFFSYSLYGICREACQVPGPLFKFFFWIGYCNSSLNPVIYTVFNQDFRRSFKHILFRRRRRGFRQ
- run description: Radioligand binding experiment for α2C-adrenergic receptor ([3H]-raulwolscine)
- measurement parameters: CHO cell membranes with human α2C receptor, [3H]raulwolscine 1 nM; read-out: hα2C (pIC50) (converted)
Structures can show the parent of a compound that is named as a salt.
Each item that follows carries a reported log10(IC50).
endpoint name: log10(IC50) (log10 of the value in nM)

compound="C/C(=C\\c1ccccc1)CN1CCN(CC2ON=C3c4ccncc4OCC32)CC1 (centres unmarked) [Compound 18]" test_value=0.20
compound="c1ccc2cc(CN3CCN(CC4ON=C5c6ccncc6OCC54)CC3)ccc2c1 (centres unmarked) [Compound 19]" test_value=1.60
compound="C/C(=C\\c1ccc(F)cc1)CN1CCN(CC2ON=C3c4ncccc4OCC32)CC1 (centres unmarked) [Compound 24]" test_value=1.50
compound="C/C(=C\\c1ccc(F)cc1)CN1CCN(CC2ON=C3c4sccc4OCC32)CC1 (centres unmarked) [Compound 27]" test_value=0.90
compound="C/C(=C\\c1ccccc1)CN1CCN(CC2ON=C3c4cccnc4OCC32)CC1 (centres unmarked) [Compound 22, oxalate salt]" test_value=1.90
